Molecular target: endo β-1,4-D-glucanase
Construct: native secreted enzyme purified from solid state culture (ammonium sulfate, DEAE-Sepharose, Sephadex G-100); ~55 kDa on SDS-PAGE, monomer
Experiment: inhibition of CMC hydrolysis, DNS reducing sugar assay, Lineweaver-Burk plot
Settings: competitive; substrate carboxymethyl cellulose; cellobiose 5 and 10 mM
readoutKind: pKi
To interpret pKi, take it as minus log10 of a concentration measured in moles per litre.

*Q* Give the reported pKi for OC[C@H]1O[C@@H](O[C@H]2[C@H](O)[C@@H](O)C(O)O[C@@H]2CO)[C@H](O)[C@@H](O)[C@@H]1O (stereo partly shown) [cellobiose] (system: endo β-1,4-D-glucanase).
*A* 1.18
